For each entry below, report its self-cleavage value.
B1: Osa-1-4 twister ribozyme (parent)
chain: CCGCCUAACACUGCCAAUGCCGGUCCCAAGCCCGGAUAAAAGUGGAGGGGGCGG

Variants of: B1
test protocol: self-cleavage, relative activity (ratio to wild type); higher = more cleavage; co-transcriptional
The reply should be a number, written without any unit.

Task item: Given the entry A7G G48C , report its measured self-cleavage.
Reply: 0.05

Task item: C31U U24A , same question.
Reply: 0.02

Task item: A46G G44U , same question.
Reply: 0.07

Task item: A38U G49U , same question.
Reply: 0.09

Task item: A28U G35A , same question.
Reply: 0.73

Task item: A16U A38U , same question.
Reply: 1.05

Task item: U18A U24A , same question.
Reply: 0.25

Task item: A28C A8C , same question.
Reply: 0.09

Task item: A16G A38U , same question.
Reply: 1.05

Task item: C52G G13C , same question.
Reply: 0.07

Task item: G42C G44A , same question.
Reply: 0.24

Task item: A10C U12C , same question.
Reply: 0.06

Task item: A40G C27U , same question.
Reply: 0.11

Task item: A28C A38C , same question.
Reply: 0.98

Task item: A39U C26G , same question.
Reply: 0.11

Task item: G42A U43A , same question.
Reply: 0.16

Task item: A8U C31A , same question.
Reply: 0.03

Task item: A10U U24A , same question.
Reply: 0.03

Task item: C27A C33A , same question.
Reply: 0.09

Task item: G23U U18G , same question.
Reply: 0.14

Task item: C31U G49U , same question.
Reply: 0.06

Task item: A7U U37C , same question.
Reply: 0.08

Task item: G47C G50A , same question.
Reply: 0.13

Task item: A29C G34U , same question.
Reply: 0.03

Task item: A16G C15G , same question.
Reply: 0.78

Task item: A36C U43C , same question.
Reply: 0.13

Task item: C15U U12G , same question.
Reply: 0.1

Task item: C31A G47U , same question.
Reply: 0.02

Task item: G44U U43C , same question.
Reply: 0.37

Task item: C9G G19U , same question.
Reply: 0.11

Task item: A10U G42A , same question.
Reply: 0.04

Task item: A40G C20U , same question.
Reply: 0.91

Task item: A41U A46U , same question.
Reply: 0.09

Task item: G42U U24G , same question.
Reply: 0.02

Task item: C14U U18A , same question.
Reply: 0.5

Task item: C21A C32U , same question.
Reply: 0.07

Task item: A7C G34A , same question.
Reply: 0.03

Task item: C11A G49C , same question.
Reply: 0.06

Task item: A41G C21G , same question.
Reply: 0.13

Task item: A41U A46G , same question.
Reply: 0.07

Task item: G22A G30A , same question.
Reply: 0.05

Task item: A28G C9A , same question.
Reply: 0.04

Task item: C31A G45U , same question.
Reply: 0.02

Task item: A28G A40G , same question.
Reply: 0.14

Task item: G35C G42U , same question.
Reply: 0.07

Task item: C25A U43C , same question.
Reply: 0.06
